Cited source for all entries: the supplement of paper PMC6992640

system: HCI01 (cells of a triple-negative basal-like breast cancer xenograft); assay: cell viability (% of vehicle); higher = less cytotoxic; conditions: 1 µM; 72 h
Counter-ions that a name gives are not always drawn.
Endpoint Name: cell viability
In your answer, state the number alone without any accompanying words.

cell viability lookup needed for CC(C)(C)c1ccc(C(O)CCCN2CCC(C(O)(c3ccccc3)c3ccccc3)CC2)cc1 (stereo not given) [Terfenadine] , thanks.
89

Same question, CNCCC(Oc1ccc(C(F)(F)F)cc1)c1ccccc1.Cl (stereo not given) [Fluoxetine HCl] this time
91.1

Same question, CCCCCCCCCCCCCCCCOP(=O)([O-])OCC[N+](C)(C)C [Miltefosine] this time
89.6

Same question, O=C(NC1CCN(CCCCC2(C(=O)NCC(F)(F)F)c3ccccc3-c3ccccc32)CC1)c1ccccc1-c1ccc(C(F)(F)F)cc1 [Lomitapide] this time
92.2

Same question, COc1cc2nccc(Oc3ccc(NC(=O)Nc4cc(C)on4)c(Cl)c3)c2cc1OC [Tivozanib (AV-951)] this time
91

Same question, Cc1c(C(=O)NN2CCCCC2)nn(-c2ccc(Cl)cc2Cl)c1-c1ccc(Cl)cc1 [Rimonabant] this time
87.4

Same question, COc1cc2nccc(Oc3ccc(NC(=O)NC4CC4)c(Cl)c3)c2cc1C(N)=O [Lenvatinib (E7080)] this time
89.1

Same question, CCc1oc2ccccc2c1C(=O)c1cc(Br)c(O)c(Br)c1 [Benzbromarone] this time
88.4

Same question, CNC(=O)c1cc(Oc2ccc(NC(=O)Nc3ccc(Cl)c(C(F)(F)F)c3)cc2)ccn1.Cc1ccc(S(=O)(=O)O)cc1 [Sorafenib Tosylate] this time
90.6

Same question, COc1nc2ccc(Br)cc2cc1[C@@H](c1ccccc1)[C@@](O)(CCN(C)C)c1cccc2ccccc12 [Bedaquiline fumarate] this time
90.7

----------
test system: HCI01; test: cell viability (% of vehicle); higher = less cytotoxic; details: 10 µM; 72 h
Endpoint Name: cell viability
In your answer, state the number alone without any accompanying words.

cell viability lookup needed for COc1cc(C2c3cc4c(cc3C(OC3OC5COC(C)OC5C(O)C3O)C3COC(=O)C23)OCO4)cc(OC)c1O (stereo not drawn) [Etoposide] , thanks.
103

Same question, CC(=O)O[C@H]1Cc2ccccc2N(C(N)=O)c2ccccc21 [Eslicarbazepine acetate] this time
102

Same question, NC(N)=NS(=O)(=O)c1ccc(N)cc1 [Sulfaguanidine] this time
99.8

----------
system: WHIM2 (cells of a triple-negative basal-like breast cancer xenograft); experiment: cell viability (% of vehicle); higher = less cytotoxic; conditions: 10 µM; 72 h
Endpoint Name: cell viability
In your answer, state the number alone without any accompanying words.

Lab note: need cell viability with WHIM2 for entry CCOC(=O)C1=C(C)NC(C)=C(C(=O)OC)C1c1cccc(Cl)c1Cl (stereo not drawn) , please look it up.
102

Same question, COc1ccc(C2CNC(=O)C2)cc1OC1CCCC1 (stereo not drawn) [Rolipram] this time
101

Same question, CCCc1cc(=O)[nH]c(=S)[nH]1 this time
100

----------
tested on: UCD52 (cells of a triple-negative basal-like breast cancer xenograft); test: cell viability (% of vehicle); higher = less cytotoxic; settings: 10 µM; 72 h
Endpoint Name: cell viability
In your answer, state the number alone without any accompanying words.

cell viability lookup needed for Cc1cn(-c2cc(/N=C(\O)c3ccc(C)c(Nc4nccc(-c5cnccn5)n4)c3)cc(C(F)(F)F)c2)cn1 , thanks.
102

Same question, CC12CCC3=C4CCC(=O)C=C4CCC3C1CCC2(O)CC#N (stereo not given) this time
92.3

Same question, NNC(=O)c1ccncc1 this time
72.6

Same question, CCN(CCCc1ccccc1)CCCc1ccccc1.O=C(O)CC(O)(CC(=O)O)C(=O)O [Alverine Citrate] this time
59.9

Same question, CC1CC2C3CC(F)C4=CC(=O)C=CC4(C)C3(F)C(O)CC2(C)C1(O)C(=O)CO (stereo not given) this time
166
